Where do the numbers come from? From patent US20100167390.

System under test: NF-kB p65 (RelA) (UniProt Q04206 Q04206:1-551)
Sequence (Q04206 whole entry, one chain of several): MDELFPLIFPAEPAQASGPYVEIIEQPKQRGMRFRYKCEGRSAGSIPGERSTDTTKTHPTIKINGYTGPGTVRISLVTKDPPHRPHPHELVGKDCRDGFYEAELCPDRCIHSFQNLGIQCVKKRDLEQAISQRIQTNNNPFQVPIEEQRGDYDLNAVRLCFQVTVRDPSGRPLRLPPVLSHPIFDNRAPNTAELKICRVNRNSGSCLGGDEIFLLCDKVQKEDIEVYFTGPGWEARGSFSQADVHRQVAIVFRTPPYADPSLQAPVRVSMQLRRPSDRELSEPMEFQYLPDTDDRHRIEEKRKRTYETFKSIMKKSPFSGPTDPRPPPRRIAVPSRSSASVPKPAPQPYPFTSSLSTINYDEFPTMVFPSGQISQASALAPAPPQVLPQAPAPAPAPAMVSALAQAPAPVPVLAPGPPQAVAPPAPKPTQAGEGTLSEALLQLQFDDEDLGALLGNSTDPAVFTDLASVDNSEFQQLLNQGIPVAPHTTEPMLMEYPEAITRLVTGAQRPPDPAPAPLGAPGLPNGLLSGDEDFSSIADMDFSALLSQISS
Experiment description: competition; ELISA competition with immobilized consensus site; 4.77 in Table 3-2, 4.93 in Table 4; Table 7 lists 4.93, 4.30, 3.24 in PSODN, FSODN, ODN columns
Run conditions: protein: extract; tags: TPA and CI-stimulated Jurkat nuclear extract, Active Motif TransAM kit

{"Binder": "Control decoy (conventional NF-kB decoy) (dsDNA, PS all bonds, both strands) DNA 1: CCTTGAAGGGATTTCCCTCC DNA 2: GGAGGGAAATCCCTTCAAGG", "IC50, nM": 5.26}
